In this section, each of the molecules is paired with its reported pIC50.
# target: mPAD4 (Mus musculus)
# Sequence (Q9Z183 whole entry): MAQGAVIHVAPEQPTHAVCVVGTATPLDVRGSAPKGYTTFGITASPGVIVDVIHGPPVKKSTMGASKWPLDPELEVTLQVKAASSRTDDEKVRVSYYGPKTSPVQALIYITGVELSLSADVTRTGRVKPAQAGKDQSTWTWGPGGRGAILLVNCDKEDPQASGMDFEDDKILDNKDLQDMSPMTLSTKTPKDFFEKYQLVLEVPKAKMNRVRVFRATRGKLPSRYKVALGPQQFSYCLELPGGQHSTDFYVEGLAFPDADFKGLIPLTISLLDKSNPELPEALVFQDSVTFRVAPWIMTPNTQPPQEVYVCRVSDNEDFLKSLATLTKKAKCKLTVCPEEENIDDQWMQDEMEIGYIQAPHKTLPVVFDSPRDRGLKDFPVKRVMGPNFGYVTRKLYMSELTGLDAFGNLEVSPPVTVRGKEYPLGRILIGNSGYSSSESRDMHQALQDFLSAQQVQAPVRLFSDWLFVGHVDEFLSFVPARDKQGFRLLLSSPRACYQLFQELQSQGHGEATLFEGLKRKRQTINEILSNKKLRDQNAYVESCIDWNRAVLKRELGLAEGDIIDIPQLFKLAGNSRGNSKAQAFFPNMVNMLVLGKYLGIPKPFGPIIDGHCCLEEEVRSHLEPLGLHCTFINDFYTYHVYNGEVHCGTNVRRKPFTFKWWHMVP
# test-description: mPAD4 RFMS PAD4 inhibition assay
# Type: biochemical
# conditions: mPAD4, RFMS readout; read-out: mPAD4 RFMS IC50
# Description: Compounds of the present invention were assayed as inhibitors of PAD4 using the assay protocol described below. Compound stock solutions were stored at RT. […] Final assay conditions were as follows: Total incubation time: 65 mins at 37° C. Stop solution: 40 μl 5% TCA in ACN The compound numbers correspond to the compound numbers in Table 1. […] The term pIC50=−log(IC50). […] “NA” stands for “not assayed.”
pIC50: −log10 of the molar value.

Sample answers from the record:
[
  {
    "molecule": "Cn1c(-c2cc3cccnc3n2CC2CC2)nc2cc(C(=O)N3C[C@H](N)C[C@@H](F)C3)cc(OC(F)F)c21",
    "pIC50": "> 6.00"
  },
  {
    "molecule": "COc1cc(C(=O)N2CCC3OCCNC3C2)cc2nc(-c3cc4cccnc4n3CC3CC3)n(C)c12 (racemic)",
    "pIC50": "5.30 to 6.00"
  },
  {
    "molecule": "COCCn1c(-c2nc3cc(C(=O)N4C[C@@H](N)CC[C@H]4C)cc(OC)c3n2C)cc2cccnc21",
    "pIC50": "5.30 to 6.00"
  }
]

Give mPAD4 (Mus musculus) pIC50 for COc1cc(C(=O)N2CC3CCC2C(N)C3)cc2nc(-c3cc4cccnc4n3CC3CC3)n(C)c12 (centres unmarked) [Compound I-129]
5.30 to 6.00

Give mPAD4 (Mus musculus) pIC50 for COc1cc(C(=O)N2CCC3(CNCCC3(F)F)C2)cc2nc(-c3cc4cccnc4n3CC3CC3)n(C)c12 (racemic)
< 5.00

Give mPAD4 (Mus musculus) pIC50 for "COc1cc(C(=O)N2C[C@H](N)CC[C@H]2C)cc2nc(-c3cc4cccnc4n3CC3CC3)n(C)c12"
5.00 to 5.30

Give mPAD4 (Mus musculus) pIC50 for "COc1ccc2cc(-c3nc4cc(C(=O)N5CCC[C@@H](N)C5)cc(OC(F)F)c4n3C)n(CC3CC3)c2n1"
> 6.00

Give mPAD4 (Mus musculus) pIC50 for "COc1cc(C(=O)N2C[C@H]3CC[C@@H]2[C@@H]3N)cc2nc(-c3cc4cc(F)cnc4n3CC3CC3)n(C)c12"
> 6.00

Give mPAD4 (Mus musculus) pIC50 for "COc1cc(C(=O)N2CC3(CCOC[C@@H]3N)C2)cc2nc(-c3cc4cccnc4n3CC3CC3)n(C)c12"
< 5.00

Give mPAD4 (Mus musculus) pIC50 for "CO[C@H]1CCN(C(=O)c2cc(OC(F)F)c3c(c2)nc(-c2cc4cccnc4n2CC2CC2)n3C)C[C@H]1N"
> 6.00

Give mPAD4 (Mus musculus) pIC50 for COc1cc(C(=O)N2CCC(F)C(N)C2)cc2nc(-c3cc4cccnc4n3CC3CC3)n(C)c12 (racemic) [Compound I-75]
5.30 to 6.00

Give mPAD4 (Mus musculus) pIC50 for CO[C@@H]1CCN(C(=O)c2ccc3c(c2)nc(-c2cc4cccnc4n2CC2CC2)n3C)C[C@@H]1N (single isomer, unassigned)
5.00 to 5.30

Give mPAD4 (Mus musculus) pIC50 for Cn1c(-c2cc3cccnc3n2CC2CC2)nc2cc(C(=O)N3CCCC4NCCC43)ccc21 (centres unmarked)
< 5.00

Give mPAD4 (Mus musculus) pIC50 for "CCn1c(-c2nc3cc(C(=O)N4C[C@H]5CC[C@@H]4[C@@H]5N)cc(OC)c3n2CCOC)cc2cccnc21"
5.30 to 6.00

Give mPAD4 (Mus musculus) pIC50 for "CCn1c(-c2nc3cc(C(=O)N4CCC[C@@H](N)C4)cc(OC)c3n2C[C@H]2C[C@@](C)(OC)C2)cc2cccnc21"
> 6.00

Give mPAD4 (Mus musculus) pIC50 for "COc1cc(C(=O)N2C[C@H]3CC4OC(=O)N[C@H]3[C@@H]42)cc2nc(-c3cc4cccnc4n3CC3CC3)n(C)c12"
< 5.00

Give mPAD4 (Mus musculus) pIC50 for "COc1cc(C(=O)N2CCC[C@@H](N)C2)cc2nc(-c3cc4cnc(C)nc4n3CC3CC3)n(C)c12"
5.30 to 6.00

Give mPAD4 (Mus musculus) pIC50 for "CCn1c(-c2nc3cc(C(=O)N4C[C@H]5CC[C@@H]4[C@@H]5N)cc(OC)c3n2C)cc2ccc(C(F)(F)F)nc21"
> 6.00

Give mPAD4 (Mus musculus) pIC50 for "COc1cc(C(=O)N2C[C@H]3CC[C@@H]2[C@@H]3N)cc2nc(-c3cc4cccnc4n3CC3CC3)n([C@H]3C[C@@H](OC)C3)c12"
5.30 to 6.00

Give mPAD4 (Mus musculus) pIC50 for "COc1cc(C(=O)N2C[C@H]3CC[C@@H]2[C@@H]3N)cc2nc(-c3cc4cccnc4n3CCF)n(C)c12"
5.30 to 6.00
